Sourced from patent US20080032229A1

- test.name: Solubility of bases in propylene glycol monomethyl ether acetate (shaken overnight, visual inspection)
- Type: physicochemical
- condition.label: 0.2 wt. % solution in propylene glycol monomethyl ether acetate, shaken ~20 hours at room temperature, visual inspection
readout: Solubility, 0.2 wt. % in PGMEA

molecule: Nc1ncnc2nc[nH]c12 [Adenine]
readout: Solubility, 0.2 wt. % in PGMEA
result.value: Not soluble
//
molecule: Nc1nc(N)c2[nH]cnc2n1 [2,6-Diaminopurine]
readout: Solubility, 0.2 wt. % in PGMEA
result.value: Not soluble
//
molecule: Nc1nc2nc[nH]c2c(=O)[nH]1 [Guanine]
readout: Solubility, 0.2 wt. % in PGMEA
result.value: Not soluble
